target_under_test: T1, soluble human CD3 epsilon chain (human, UniProt P07766 23-126)
T1 construct: also called CD3ε
method_description: SPR
metric: pKd
Value format note: pKd is -log10 of concentration (mol/L); just state the number.

binder | pKd
TR01H061-E22Hh/none-Hi-Kn010G3/L0215-k0 (antibody, V domains shown, one-arm) VH: QVQLVESGGGLVQPGRSLRLSCAASGFTFSNAWMHWVRQAPGKGLEWVAQIKDKSQNYATYYAESVKGRFTISRADSKNSIYLQMNSLKTEDTAVYYCRYVHYAASYGVDIWGQGTTVTVSS VL: DIVMTQSPLSLPVTPGEPASISCRSSQPPVHSNRNTYIHWYQQKPGQAPRLLIYKVSNRFSGVPDRFSGSGSGTDFTLKISRVEAEDVGVYYCGQGTQVPYTFGQGTKLEIK | 7.81

Continue with the next binder.
Prompt line: Recorded pKd of TR01H023-E22Hh/none-Hi-Kn010G3/L0000-k0 (antibody, V domains shown, one-arm) VH: QVQLVESGGGLVQPGGSLRLSCAASGFTFSNAWMHWVRQAPGKGLEWVAQIKGKSQNYATYYAESVKGRFTISRADSKNSIYLQMNSLKTEDTAVYYCRYVHYSASYGVDIWGQGTTVTVSS VL: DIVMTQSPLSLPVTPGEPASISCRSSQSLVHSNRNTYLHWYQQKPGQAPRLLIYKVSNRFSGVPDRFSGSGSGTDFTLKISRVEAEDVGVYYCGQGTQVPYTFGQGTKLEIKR , please.
Response line: 7.10
